All figures here come from paper PMC4900588.

// values below are reported inhibition at 5 µM
- System: C. pneumoniae EBs
- PROTOCOL_DETAILS: Elementary body infectivity assay
- Type: cell-based
- CONDITION_PARAMETERS: Chlamydia pneumoniae; EBs treated with 5 μM for 1 h before inoculation of HL cells; read-out: inhibition of EB infectivity
OBSERVABLE: inhibition at 5 µM (%)

>>> measured_result("CC(C)(C)c1ccc(CC(CN)(Cc2ccc(C(C)(C)C)cc2)C(=O)NCCN)cc1 [A3]")
77
>>> measured_result("CN(C)CCOC(=O)C(CN)(Cc1ccc2ccccc2c1)Cc1ccc2ccccc2c1 [A5]")
66
>>> measured_result("CN(C)CCOC(=O)C(CN)(Cc1ccc(C(C)(C)C)cc1)Cc1ccc(C(C)(C)C)cc1 [A6]")
90
>>> measured_result("CN(C)CCOC(=O)C(CN)(Cc1ccc(C(F)(F)F)cc1)Cc1ccc(C(F)(F)F)cc1 [A4]")
20

---

- PROTOCOL_DETAILS: Resazurin cell viability assay
- Format: cell-based, human
- CONDITION_PARAMETERS: human, HL cells
OBSERVABLE: viability at 72 h, 5 µM (%)

>>> measured_result("CN(C)CCOC(=O)C(CN)(Cc1ccc(C(C)(C)C)cc1)Cc1ccc(C(C)(C)C)cc1")
18.4
>>> measured_result("CC(C)(C)c1ccc(CC(CN)(Cc2ccc(C(C)(C)C)cc2)C(=O)NCCN)cc1")
30.6

---

- Test system: C. pneumoniae strain K7
- PROTOCOL_DETAILS: C. pneumoniae inclusion count inhibition in infected HL cells (immunofluorescence)
- Type: cell-based, Chlamydia pneumoniae
- CONDITION_PARAMETERS: Chlamydia pneumoniae; 5 μM, added at 2 hpi, strain K7, HL cells, 72 h; read-out: reduction in inclusion counts / inhibition against C. pneumoniae
- Protocol: Human epithelial HL cells were grown in a RPMI1640 medium supplemented with 7.5% fetal bovine serum (FBS), 2 mM L-glutamine and 20 μg/ml gentamicin sulfate. […] All experiments were carried out as four replicates in minimum and the inclusion counts were determined as mean ± SEM of 4 eye fields per coverslip. […]
// values below are reported inhibition at 5 µM
OBSERVABLE: inhibition at 5 µM (%)

>>> measured_result("NCCNC(=O)C(CN)(Cc1ccc(C(F)(F)F)cc1)Cc1ccc(C(F)(F)F)cc1")
95.6
>>> measured_result("CN(C)CCOC(=O)C(CN)(Cc1ccc2ccccc2c1)Cc1ccc2ccccc2c1")
89.8
>>> measured_result("CN(C)CCOC(=O)C(CN)(Cc1ccc(C(F)(F)F)cc1)Cc1ccc(C(F)(F)F)cc1")
23.2
>>> measured_result("NCCNC(=O)C(CN)(Cc1ccc2ccccc2c1)Cc1ccc2ccccc2c1")
100
